Where these numbers come from: patent US20210388107A1

# system.tested: T1, human SIRPβ1v1, AVI-tagged, biotinylated, monomeric form (human, UniProt O00241 30-371, biotinylated)
# T1 construct: also called huSIRPβ1v1
# assay.overview: SPR, captured monomeric antigen
# Procedure: Surface Plasmon Resonance (SPR) assay: Affinity analysis was performed by single cycle kinetics analysis on a BiaCore™ T200 instrument (GE life Sciences) at 25° C. […] The streptavidin surface was prepared by injection of biotin capture reagent. […] The kinetic parameters (kₐ, kd and KD) were calculated using the BiaCore™ T200 evaluation software (v3.1). huSIRPβ₁ᵥ₁ and huSIRPβ₁ᵥ₂ were tested in their monomeric form.
reported.endpoint: Kd (pM)
Write the value in pM as a bare number.

# example entries with known answers
binder	result.units	Kd
1H9 humanized IgG1-kappa, HC-N297A (antibody, V domains shown) VH: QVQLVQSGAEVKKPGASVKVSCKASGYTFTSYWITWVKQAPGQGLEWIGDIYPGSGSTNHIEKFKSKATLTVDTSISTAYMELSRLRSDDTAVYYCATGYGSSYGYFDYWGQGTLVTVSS VL: DIQMTQSPSSLSASVGDRVTITCRASENIYSYLAWYQQKPGKAPKLLIYTAKTLAEGVPSRFSGSGSGTDFTLTISSLQPEDFATYYCQHQYGPPFTFGQGTKLEIKR	pM	20.8
HEFLB (humanized IgG4) (antibody, V domains shown, humanized IgG4 of WO 2017/178653; also called humanized HEFLB) VH: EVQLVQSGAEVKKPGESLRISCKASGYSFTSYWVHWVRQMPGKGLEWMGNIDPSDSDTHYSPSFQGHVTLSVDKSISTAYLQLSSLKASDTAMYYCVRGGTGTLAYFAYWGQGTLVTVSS VL: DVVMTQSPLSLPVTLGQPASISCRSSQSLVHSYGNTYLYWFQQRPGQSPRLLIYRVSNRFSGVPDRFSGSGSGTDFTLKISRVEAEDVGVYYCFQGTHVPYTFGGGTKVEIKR	pM	220

Consider the record given below.
Enquiry: Complete the entry with Kd for AB3-LALA (AB3 chicken-human chimeric IgG1-kappa, LALA) (antibody, V domains shown) VH: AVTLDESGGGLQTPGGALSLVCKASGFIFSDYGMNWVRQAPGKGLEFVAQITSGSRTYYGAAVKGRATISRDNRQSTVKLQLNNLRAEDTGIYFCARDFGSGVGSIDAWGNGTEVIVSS VL: ALTQPASVSANLGGTVKITCSGSRGRYGWYQQRSPGSAPVTVIYRDNQRPSNIPSRFSSSTSGSTSTLTITGVQADDESVYFCGSYDGSIDIFGAGTTLTVLR
Return: 21.2
